Hello, the source for this data is patent US20240026017A1, in case you need it.

# assayed system: T1, human CC chemokine receptor 1 (human CCR1) (human, UniProt P32246 1-355)
# T1 construct: endogenous on THP-1 cells in the migration assays; also called hCCR1; CHO-S-hCCR1 (expressing cells)
# T1 sequence: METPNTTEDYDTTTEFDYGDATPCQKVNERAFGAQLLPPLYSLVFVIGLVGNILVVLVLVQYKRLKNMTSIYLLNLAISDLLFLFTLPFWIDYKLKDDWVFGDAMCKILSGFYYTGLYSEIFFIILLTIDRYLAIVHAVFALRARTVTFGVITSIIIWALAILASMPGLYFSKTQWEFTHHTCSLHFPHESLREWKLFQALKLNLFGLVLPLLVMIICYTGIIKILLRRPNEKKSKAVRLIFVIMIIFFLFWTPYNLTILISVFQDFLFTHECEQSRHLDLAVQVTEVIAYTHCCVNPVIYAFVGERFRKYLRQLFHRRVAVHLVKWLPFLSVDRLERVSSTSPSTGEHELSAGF
# assay comment: flow cytometry on CHO-S-hCCR1 cells; bound = fluorescence 10 times or more that of isotype control hzDNP1

# binder, binding result
rows = [
    ("hzmAb5-06 LV5HV17 antibody (antibody, V domains shown, humanized) VH: QVQLQQSGPGLVKPSQTLSITCTVSGFSLNNYGVHWVRQPPGKGLEWLGVIWSAGTTVYNAAAISRLTISKDDSKSQVSFKMSSLTAADTAIYYCAKDGSRYYTAMDYWGQGTLVTVSS VL: DVVMTQSPLSLPVTLGEPASISCRSSQSLVHRNGITFFHWYLQKPGQSPKLLIYKISNRFSGVPDRFSGSGSGTDFTLKISRVEAEDVGVYFCSQGTHVPPTFGQGTKLEIK", "binds"),
    ("hzmAb5-06 LV2bHV17 antibody (antibody, V domains shown, humanized) VH: QVQLQQSGPGLVKPSQTLSITCTVSGFSLNNYGVHWVRQPPGKGLEWLGVIWSAGTTVYNAAAISRLTISKDDSKSQVSFKMSSLTAADTAIYYCAKDGSRYYTAMDYWGQGTLVTVSS VL: DIVMTQSPLSLPVTPGEPASISCRSSQSLVHRNGITFFHWYLQKPGQSPKLLIYKISNRFSGVPDRFSGSGSGTDFTLKISRVEAEDVGVYFCSQGTHVPPTFGQGTKVEIK", "binds"),
]
